Values from patent US20250368742A1

Target: T1, MICA008-ECD-HISAvi (human)
T1 construct: Two sources under one name in the two kinetic assays; also called MICA008 polypeptide
T1 chain: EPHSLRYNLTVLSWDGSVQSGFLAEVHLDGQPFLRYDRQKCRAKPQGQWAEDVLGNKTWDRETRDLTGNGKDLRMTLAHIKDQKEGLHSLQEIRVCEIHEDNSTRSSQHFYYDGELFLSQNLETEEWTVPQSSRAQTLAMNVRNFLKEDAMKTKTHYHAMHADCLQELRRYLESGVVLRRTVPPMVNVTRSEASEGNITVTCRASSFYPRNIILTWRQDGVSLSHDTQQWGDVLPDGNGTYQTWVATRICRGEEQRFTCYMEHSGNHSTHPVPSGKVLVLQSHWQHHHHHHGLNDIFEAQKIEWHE
Assay: SPR (Carterra); antibody captured by anti-human Fc, monomeric ECD antigen injected;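 further: dissociation phase followed for about 10 min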
Parameter: Kd (nM)
Give the number; nM is assumed, so skip it.

[
  {
    "Binder": "#34 (antibody, human IgG1, V domains shown, also called PL111H04; Hit ID 34) VH: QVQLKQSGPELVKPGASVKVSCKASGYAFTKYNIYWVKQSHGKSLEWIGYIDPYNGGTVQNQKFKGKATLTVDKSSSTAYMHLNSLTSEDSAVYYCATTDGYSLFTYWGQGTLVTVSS VL: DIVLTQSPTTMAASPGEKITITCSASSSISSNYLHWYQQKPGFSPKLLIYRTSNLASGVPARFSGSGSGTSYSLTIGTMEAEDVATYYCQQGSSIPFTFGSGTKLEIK",
    "Unit": "nM",
    "Kd": 29.2
  }
]

## Task Hello, please tell me recorded Kd for this one: #36 (antibody, human IgG1, V domains shown, also called PL116H11; Hit ID 36) VH: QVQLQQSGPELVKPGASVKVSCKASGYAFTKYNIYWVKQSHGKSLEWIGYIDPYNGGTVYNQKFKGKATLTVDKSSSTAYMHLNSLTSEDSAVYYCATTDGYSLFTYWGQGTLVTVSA VL: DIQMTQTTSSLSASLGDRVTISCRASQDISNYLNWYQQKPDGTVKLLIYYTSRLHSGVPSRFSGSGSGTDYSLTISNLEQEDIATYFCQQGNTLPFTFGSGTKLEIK
## Result 21.2

## Task Hello, please tell me recorded Kd for this one: B10G5 (antibody, human IgG1, kappa, V domains shown, also called B10G5-2; P2B10G5) VH: EVQLEESGPGLVKPSQSLSLTCTVTGYSITSDYAWNWIRQFPGNKLEWMGYISYSGSTNYNPSLKSRISITRDTSKNQFFLQLNSVITEDTATYYCARGGTYFDYWGQGTTLTVSS VL: DIVLTQTTSYLSVSLGGRVTIACKASAHINNWLAWYQQKPGNAPRLLISDATSLETGVPSRFSGSGSGKDYTLSITSLQTEDVATYYCQHYWSTPWTFGGGTKLEIKR
## Result 0.846

## Task Hello, please tell me recorded Kd for this one: #39 (antibody, human IgG1, V domains shown, also called PL114G03; Hit ID 39) VH: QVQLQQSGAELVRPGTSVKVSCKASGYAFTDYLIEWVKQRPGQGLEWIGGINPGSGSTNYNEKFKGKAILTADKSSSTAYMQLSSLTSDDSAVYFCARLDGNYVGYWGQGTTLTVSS VL: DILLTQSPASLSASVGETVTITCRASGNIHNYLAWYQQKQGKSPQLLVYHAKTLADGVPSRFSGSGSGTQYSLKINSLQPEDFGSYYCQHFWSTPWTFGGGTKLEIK
## Result 54.8

## Task Hello, please tell me recorded Kd for this one: #40 (antibody, human IgG1, V domains shown, also called PL113C03; Hit ID 40) VH: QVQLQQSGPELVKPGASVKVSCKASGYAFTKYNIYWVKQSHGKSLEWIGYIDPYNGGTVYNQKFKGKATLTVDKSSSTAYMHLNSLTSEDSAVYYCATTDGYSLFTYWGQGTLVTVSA VL: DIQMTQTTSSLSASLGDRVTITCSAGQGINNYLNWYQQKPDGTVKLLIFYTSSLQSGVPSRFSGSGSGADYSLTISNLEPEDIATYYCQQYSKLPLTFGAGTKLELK
## Result 20.5
